Provide the reported glycan array binding signal (z-score) of each item.
Molecular target: Gal(b1-3)GalNAc(a1-3)[Fuc(a1-2)]Gal(b1-4)Glc
Experiment: glycan array binding signal (z-score within array); higher = stronger binding
Conditions: glycan notation: IUPAC condensed, linker removed
Shown is part of a subset that was picked to be rich in the strongest signals.
Numbers only.

Consider the reported glycan array binding signal (z-score) for these binders:
# binder CFEM-PPl (Pichia pastoris), F2QPV1 (protein) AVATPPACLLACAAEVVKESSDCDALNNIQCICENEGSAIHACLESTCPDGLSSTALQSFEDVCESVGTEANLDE ; its glycan array binding signal (z-score) = 0.63

Record summary for AT3G09350(27) (Arabidopsis thaliana), Q84J81 (protein) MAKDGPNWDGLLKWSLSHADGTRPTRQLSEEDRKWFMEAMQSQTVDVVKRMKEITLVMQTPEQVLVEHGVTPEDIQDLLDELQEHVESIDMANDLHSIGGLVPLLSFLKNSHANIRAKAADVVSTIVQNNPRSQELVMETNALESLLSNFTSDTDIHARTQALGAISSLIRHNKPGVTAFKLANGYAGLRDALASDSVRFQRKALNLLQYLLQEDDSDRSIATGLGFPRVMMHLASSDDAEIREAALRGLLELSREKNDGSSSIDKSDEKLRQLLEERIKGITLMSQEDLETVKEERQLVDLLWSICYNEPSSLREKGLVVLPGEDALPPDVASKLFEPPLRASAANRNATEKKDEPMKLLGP : reported glycan array binding signal (z-score) = -0.346

Record CFEM-PPm (Pichia pastoris), F2QPV1 (protein) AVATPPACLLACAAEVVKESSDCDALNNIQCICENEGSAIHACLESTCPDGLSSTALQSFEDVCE , field glycan array binding signal (z-score): 0.271

Per the records, this binder ( Intelectin 1 (Homo sapiens), Q8WWA0 (protein) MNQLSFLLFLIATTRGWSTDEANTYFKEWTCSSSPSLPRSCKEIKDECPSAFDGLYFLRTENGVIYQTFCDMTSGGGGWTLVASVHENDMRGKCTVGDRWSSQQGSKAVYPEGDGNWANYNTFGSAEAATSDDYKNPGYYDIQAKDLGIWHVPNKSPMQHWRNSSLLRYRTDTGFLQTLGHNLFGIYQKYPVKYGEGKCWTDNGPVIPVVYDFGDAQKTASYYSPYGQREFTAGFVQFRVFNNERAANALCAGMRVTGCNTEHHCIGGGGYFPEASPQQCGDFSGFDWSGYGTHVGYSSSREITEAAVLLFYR ) has glycan array binding signal (z-score) equal to 0.06

Pending binder:
Measured glycan array binding signal (z-score), SSL (Salmo salar) (protein) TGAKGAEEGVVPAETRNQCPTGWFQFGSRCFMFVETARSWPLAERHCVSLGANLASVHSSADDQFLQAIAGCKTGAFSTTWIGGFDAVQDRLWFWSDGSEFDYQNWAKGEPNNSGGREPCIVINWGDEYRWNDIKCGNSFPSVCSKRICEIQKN : -0.165
